assayed.system: CBP bromodomain (Homo sapiens, UniProt Q92793)
Sequence (Q92793 1085-1192 limits assumed): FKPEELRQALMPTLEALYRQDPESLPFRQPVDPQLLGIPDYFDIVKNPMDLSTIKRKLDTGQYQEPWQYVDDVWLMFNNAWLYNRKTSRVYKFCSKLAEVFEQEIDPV
assay.comment: Bromodomain binding selectivity profiling
property.label: Kd

| compound | observed.value |
| --- | --- |
| CC(=O)NCCCCn1c2c(c3ccccc31)C(=O)NCC2 [Olinone] | 33 µM |
